Some compounds, each annotated with its measured CC50 at 120 h.
Assay remarks: Cytotoxicity against mock-infected human MT4 cells after 5 days by MTT assay
Assay type: cell-based
Experimental endpoint: CC50 at 120 h

>>> df
                                    compound     result
 0  Cc1ccc(C(C)(O)c2ccnc(Nc3ccc(C#N)cc3)n2)cc1 (configuration not stated)    39.3 µM
 1  Cc1cc(C(C)(O)c2ccc(C(C)(C)C)cc2)nc(Nc2ccc(C#N)cc2)n1 (configuration not stated)    30.4 µM
 2  CC(O)(c1ccccc1)c1ccnc(Nc2ccc(C#N)cc2)n1 (configuration not stated)    45.4 µM
 3  C=CC(O)(c1ccc(Br)cc1)c1ccnc(Nc2ccc(C#N)cc2)n1 (configuration not stated)    31.7 µM
 4  Cc1cc(C(C)(O)c2ccc(F)cc2)nc(Nc2ccc(C#N)cc2)n1 (configuration not stated)    38.2 µM
 5  Cc1cnc(Nc2ccc(C#N)cc2)nc1C(C)(O)c1ccc(F)cc1 (configuration not stated)    61.5 µM
 6  CC(O)(c1cccc(F)c1)c1ccnc(Nc2ccc(C#N)cc2)n1 (configuration not stated)    53.2 µM
 7  N#Cc1ccc(Nc2nccc(C(O)(c3ccc(Br)cc3)C3CC3)n2)cc1 (configuration not stated)    33.2 µM
 8  Cc1cn([C@H]2C[C@H](N=[N+]=[N-])[C@@H](CO)O2)c(=O)[nH]c1=O [ZIDOVUDINE]  > 93.6 µM
 9  CC(O)(c1ccc(Br)cc1)c1ccnc(Nc2ccc(C#N)cc2)n1 (configuration not stated)    28.2 µM
10  Cc1cnc(Nc2ccc(C#N)cc2)nc1C(C)(O)c1ccc(C(C)(C)C)cc1 (configuration not stated)    31.1 µM
11  CCC(O)(c1ccc(Br)cc1)c1ccnc(Nc2ccc(C#N)cc2)n1 (configuration not stated)    31.3 µM

----------
Some compounds, each annotated with its measured CC50 at 120 h.
Assay remarks: Cytotoxicity against mock-infected human MT4 cells after 5 days by MTT assay
Type: cell-based
Experimental endpoint: CC50 at 120 h (µM)

In [3]: df
Out[3]:
                                   compound  display_unit  reported_relation  measured_number
0  CC(O)(c1ccc(Cl)cc1)c1ccnc(Nc2ccc(C#N)cc2)n1 (stereo not given)            µM                  =               39
1  Cc1ccnc2c1NC(=O)c1cccnc1N2C1CC1 [NEVIRAPINE]            µM                  >               15
2  CC(O)(c1cccc(Br)c1)c1ccnc(Nc2ccc(C#N)cc2)n1 (stereo not given)            µM                  =             33.7
3  CC(O)(c1ccc(F)cc1)c1ccnc(Nc2ccc(C#N)cc2)n1 (stereo not given)            µM                  =             43.1
4  O=C1Nc2ccc(Cl)cc2[C@@](C#CC2CC2)(C(F)(F)F)O1 [EFAVIRENZ]            µM                  >              6.3
5  COc1ccc(C(C)(O)c2ccnc(Nc3ccc(C#N)cc3)n2)cc1 (stereo not given)            µM                  =             35.9
6  CC(O)(c1cccc(Cl)c1)c1ccnc(Nc2ccc(C#N)cc2)n1 (stereo not given)            µM                  =             37.5
7  CC(C)Nc1cccnc1N1CCN(C(=O)c2cc3cc(NS(C)(=O)=O)ccc3[nH]2)CC1 [DELAVIRDINE]            µM                  >             43.8
8  CC(O)(c1ccnc(Nc2ccc(C#N)cc2)n1)c1cccc2ccccc12 (stereo not given)            µM                  =             30.7
9  CC(C)(C)c1ccc(C(C)(O)c2ccnc(Nc3ccc(C#N)cc3)n2)cc1 (stereo not given)            µM                  =             31.8
